For each entry below, report its IC50 value.
- testTarget: HCV NS3/4A protease genotype 1b (Hepatitis C virus genotype 1b, UniProt P26663)
- Sequence (P26663 1027-1657): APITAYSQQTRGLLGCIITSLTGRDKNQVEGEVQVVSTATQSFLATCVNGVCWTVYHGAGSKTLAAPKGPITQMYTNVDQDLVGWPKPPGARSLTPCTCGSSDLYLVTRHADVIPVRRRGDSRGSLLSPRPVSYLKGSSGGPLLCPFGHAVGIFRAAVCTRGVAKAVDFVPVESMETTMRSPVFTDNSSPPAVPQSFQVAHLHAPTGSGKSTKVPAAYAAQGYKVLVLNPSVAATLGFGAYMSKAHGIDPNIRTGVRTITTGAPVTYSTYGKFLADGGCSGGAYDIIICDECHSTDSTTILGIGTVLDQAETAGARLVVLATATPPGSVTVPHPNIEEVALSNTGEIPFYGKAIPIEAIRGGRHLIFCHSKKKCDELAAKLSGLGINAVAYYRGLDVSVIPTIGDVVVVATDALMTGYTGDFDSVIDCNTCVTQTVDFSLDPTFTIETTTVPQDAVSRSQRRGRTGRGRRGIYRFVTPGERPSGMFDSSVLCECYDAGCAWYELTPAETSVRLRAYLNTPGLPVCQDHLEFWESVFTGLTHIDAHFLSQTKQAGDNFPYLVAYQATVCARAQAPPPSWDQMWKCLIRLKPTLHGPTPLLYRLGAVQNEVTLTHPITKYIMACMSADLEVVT
- Sequence (P26663 1658-1711): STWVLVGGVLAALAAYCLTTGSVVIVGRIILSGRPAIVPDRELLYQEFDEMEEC
- assay: HCV NS3/4A protease time-resolved fluorescence (TRF) assay, Ki against genotype 1b
- Assay type: biochemical
- experimentalContext: IC50 [gt-1b], NS3/4A protease TRF assay, genotype 1b enzyme 0.2 nM
Write the value in pM as a bare number.

Lab note: measured IC50 of COc1ccc2nc(C)c3c(c2c1)[C@H](F)C[C@]1(C[C@H]2C(=O)N[C@]4(C(=O)NS(=O)(=O)C5(C)CC5)C[C@H]4/C=C\CCCCC[C@H](NC(=O)OC(C)C(C)(C)C)C(=O)N2C1)O3 (stereo partly shown) [Example 404] was 18

Lab note: measured IC50 of CCc1nc2ccc(OC)cc2c2c1O[C@]1(CC2)C[C@H]2C(=O)N[C@]3(C(=O)NS(=O)(=O)C4(C)CC4)C[C@H]3/C=C\CCCCC[C@H](NC(=O)c3ccn(CC)n3)C(=O)N2C1 [Example 467] was 28

Lab note: measured IC50 of COCCOc1ccc2nc(C)c3c(c2c1)CC[C@]1(C[C@H]2C(=O)N[C@]4(C(=O)NS(=O)(=O)C5(C)CC5)C[C@H]4/C=C\CCCCC[C@H](NC(=O)OCC(C)C)C(=O)N2C1)O3 [Example 411] was 64

Lab note: measured IC50 of COCC1(S(=O)(=O)NC(=O)[C@@]23C[C@H]2/C=C\CCCCC[C@H](NC(=O)OCC(F)F)C(=O)N2C[C@@]4(CCc5c(c(C(F)(F)F)nc6ccc(OC)cc56)O4)C[C@H]2C(=O)N3)CC1 [Example 497] was 14

Lab note: measured IC50 of COc1cc(Cl)c2nc(C(F)(F)F)c3c(c2c1)CC[C@]1(C[C@H]2C(=O)N[C@]4(C(=O)NS(=O)(=O)C5(C)CC5)C[C@H]4/C=C\CCCCC[C@H](NC(=O)OCC(C)(C)C)C(=O)N2C1)O3 [Example 401] was 57

Lab note: measured IC50 of COc1ccc2nc(C(F)(F)F)c3c(c2c1)CC[C@]1(C[C@H]2C(=O)N[C@]4(C(=O)NS(=O)(=O)C5(C)CC5)C[C@H]4/C=C\CCCCC[C@H](NC(=O)OC4(C)CCC4)C(=O)N2C1)O3 [Example 451] was 6

Lab note: measured IC50 of COc1ccc2nc(C3CC3)c3c(c2c1)[C@H](F)C[C@]1(C[C@H]2C(=O)N[C@]4(C(=O)NS(=O)(=O)C5(C)CC5)C[C@H]4/C=C\CCCCC[C@H](NC(=O)OC(C)(C)C)C(=O)N2C1)O3 [Example 428] was 20

Lab note: measured IC50 of COc1ccc2nc(C)c3c(c2n1)[C@H](F)C[C@]1(C[C@H]2C(=O)N[C@]4(C(=O)NS(=O)(=O)C5(C)CC5)C[C@H]4/C=C\CCCCC[C@H](NC(=O)OCC(C)(C)C)C(=O)N2C1)O3 [Example 377] was 18

Lab note: measured IC50 of CCc1nc2ccc(OC)cc2c2c1O[C@]1(CC2)C[C@H]2C(=O)N[C@]3(C(=O)NS(=O)(=O)C4(C)CC4)C[C@H]3/C=C\CCCCC[C@H](NC(=O)c3ccc(C)s3)C(=O)N2C1 [Example 466] was 41

Lab note: measured IC50 of Cc1nc2cc(F)c(F)cc2c2c1O[C@]1(CC2)C[C@H]2C(=O)N[C@]3(C(=O)NS(=O)(=O)C4(C)CC4)C[C@H]3/C=C\CCCCC[C@H](NC(=O)OC(C)(C)C(F)(F)F)C(=O)N2C1 [Example 381] was 40
